compounds and their reported pIC50
Target: CSF1R phosphorylation in THP-1 cells (Homo sapiens (Human), UniProt P07333)
Sequence (P07333 20-972): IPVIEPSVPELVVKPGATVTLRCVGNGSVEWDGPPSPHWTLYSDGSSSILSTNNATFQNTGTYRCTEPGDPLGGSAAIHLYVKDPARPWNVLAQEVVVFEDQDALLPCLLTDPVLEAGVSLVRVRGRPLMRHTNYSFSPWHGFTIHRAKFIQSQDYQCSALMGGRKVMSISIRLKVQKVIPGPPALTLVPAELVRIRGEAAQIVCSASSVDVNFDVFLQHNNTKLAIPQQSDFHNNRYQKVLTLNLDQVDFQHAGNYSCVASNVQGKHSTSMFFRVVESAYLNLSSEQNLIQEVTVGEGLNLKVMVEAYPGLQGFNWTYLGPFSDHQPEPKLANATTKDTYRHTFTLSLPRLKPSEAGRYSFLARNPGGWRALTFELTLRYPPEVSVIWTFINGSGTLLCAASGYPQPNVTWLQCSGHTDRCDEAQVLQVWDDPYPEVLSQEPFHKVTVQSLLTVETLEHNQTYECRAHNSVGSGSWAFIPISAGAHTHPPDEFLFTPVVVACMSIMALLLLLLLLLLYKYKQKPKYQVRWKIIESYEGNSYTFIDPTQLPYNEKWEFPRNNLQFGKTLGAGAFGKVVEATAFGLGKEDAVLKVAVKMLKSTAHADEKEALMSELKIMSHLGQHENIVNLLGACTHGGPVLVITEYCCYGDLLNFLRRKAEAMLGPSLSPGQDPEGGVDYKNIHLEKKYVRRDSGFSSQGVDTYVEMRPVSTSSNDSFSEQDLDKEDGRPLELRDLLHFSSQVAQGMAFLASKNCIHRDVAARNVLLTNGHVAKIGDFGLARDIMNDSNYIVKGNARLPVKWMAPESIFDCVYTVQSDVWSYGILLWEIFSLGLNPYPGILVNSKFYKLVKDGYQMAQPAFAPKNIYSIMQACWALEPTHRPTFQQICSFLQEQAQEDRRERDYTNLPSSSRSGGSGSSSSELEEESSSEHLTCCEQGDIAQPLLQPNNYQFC
Assay: Detection of CSF1R phosphorylation activity at cell level (p-CSF1R ELISA, M-CSF stimulated THP-1 cells)
Format: cell-based
Settings: THP-1 cells, M-CSF stimulation, p-CSF1R ELISA; read-out: IC50
pIC50 (log units): -log10 of the concentration in mol/L.

Before answering, review these 5 worked examples.
givenSmiles: COc1cc(Oc2ccc3ncccc3c2)cnc1OCc1ccc(C2CC2)cc1
pIC50: 8.30
//
givenSmiles: COc1ccc([C@H]2COc3cc(Oc4ccnc(-c5cnn(C)c5)c4)cnc3O2)cn1
pIC50: 7.82
//
givenSmiles: COc1cc(Oc2ccc3ncc(C)c(=O)n3c2)cnc1OCc1ccc(-n2cccn2)cc1
pIC50: 6.89
//
givenSmiles: COc1cc(Oc2ccc3ncc(C)c(=O)n3c2)cnc1OCc1cccc(C(C)(C)C#N)c1
pIC50: 7.10
//
givenSmiles: COc1cc(Cc2ccnc(-c3cnn(C)c3)c2)cnc1OCc1ccc(C2CC2)cc1
pIC50: 8.30

The value of pIC50 measured for the compound "COc1cc(Oc2ccc3ncc(C)c(=O)n3c2)cnc1OCc1ccc(C(C)(C)O)cc1" turned out to be 7.35
